Target: human muscarinic acetylcholine M3 receptor (M3-ACh) (Homo sapiens, UniProt P20309)
Construct: expressed in transfected cells; host or cells: CHO-K1 (Chinese Hamster Ovary) cell membranes
Sequence (P20309 whole entry): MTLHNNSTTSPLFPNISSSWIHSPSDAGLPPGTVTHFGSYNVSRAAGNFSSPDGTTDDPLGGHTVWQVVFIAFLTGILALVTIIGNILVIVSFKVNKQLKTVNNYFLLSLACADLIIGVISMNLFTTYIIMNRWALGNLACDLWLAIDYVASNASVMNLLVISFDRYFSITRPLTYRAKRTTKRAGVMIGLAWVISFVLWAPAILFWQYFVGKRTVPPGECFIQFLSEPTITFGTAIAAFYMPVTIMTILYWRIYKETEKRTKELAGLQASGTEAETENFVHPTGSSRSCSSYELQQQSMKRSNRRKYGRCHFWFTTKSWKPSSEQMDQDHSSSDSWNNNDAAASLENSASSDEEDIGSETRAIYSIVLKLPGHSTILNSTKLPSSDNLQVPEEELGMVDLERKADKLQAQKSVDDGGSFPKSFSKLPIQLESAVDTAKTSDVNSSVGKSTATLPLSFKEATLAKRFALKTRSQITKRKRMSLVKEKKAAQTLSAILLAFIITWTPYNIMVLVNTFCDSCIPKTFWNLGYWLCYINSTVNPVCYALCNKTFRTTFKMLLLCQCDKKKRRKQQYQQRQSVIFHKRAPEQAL
Experiment: Muscarinic 3 Receptor Binding Assay, % inhibition specific binding at 1 μM
Settings: 1 μM compound, % inhibition specific [3H]-NMS binding
property.name: inhibition at 1 µM (%)
Answers are plain numbers, in %.

The cases that follow already have their inhibition at 1 µM on record.
CC(C)(C)c1nc(C(=O)N2CCOC3(CCN(CCCCCCCCCNC[C@H](O)c4ccc(O)c5[nH]c(=O)sc45)CC3)C2)cs1 [Example 216] | 90
CC(C)(C(=O)N1CCOC2(CCN(Cc3cc(F)cc(CCNC[C@H](O)c4ccc(O)c5[nH]c(=O)sc45)c3)CC2)C1)c1ccccc1 [Example 176] | 16
Cc1nonc1C(=O)N1CCOC2(CCN(Cc3cc(F)cc(CCNC[C@H](O)c4ccc(O)c5[nH]c(=O)sc45)c3)CC2)C1 [Example 151] | 71
CC(C)c1cc(C(=O)N2CCOC3(CCN(Cc4cc(F)cc(CCNC[C@H](O)c5ccc(O)c6[nH]c(=O)sc56)c4)CC3)C2)no1 [Example 179] | 66
Cc1ccc(C(=O)N2CCOC3(CCN(CCCCCCCCCNC[C@H](O)c4ccc(O)c5[nH]c(=O)sc45)CC3)C2)o1 [Example 198] | 99

Next:
Consider CCn1c(=O)n(CC(=O)N2CCOC3(CCN(Cc4cc(F)cc(CCNC[C@H](O)c5ccc(O)c6[nH]c(=O)sc56)c4)CC3)C2)c2ccccc21 [Example 135] . Its measured inhibition at 1 µM is 1

* * *

Target: human muscarinic acetylcholine M3 receptor (M3-ACh) (Homo sapiens)
Construct: expressed in transfected cells; host or cells: CHO-K1 (Chinese Hamster Ovary) cell membranes
Assay: Muscarinic 3 Receptor Binding Assay, % inhibition specific binding at 1 μM
Conditions: 1 μM compound, % inhibition specific [3H]-NMS binding
For each entry below, report its inhibition at 1 µM value.
Please append the unit to your numeric answer.

The cases that follow already have their inhibition at 1 µM on record.
COc1ccccc1CC(=O)N1CCOC2(CCN(Cc3cc(F)cc(CCNC[C@H](O)c4ccc(O)c5[nH]c(=O)sc45)c3)CC2)C1 | 22%
CC(C)(C)CC(=O)N1CCOC2(CCN(Cc3cc(F)cc(CCNC[C@H](O)c4ccc(O)c5[nH]c(=O)sc45)c3)CC2)C1 | 90%
O=C(c1cc2ccccc2[nH]1)N1CCOC2(CCN(Cc3cc(F)cc(CCNC[C@H](O)c4ccc(O)c5[nH]c(=O)sc45)c3)CC2)C1 | 82%
Cc1sccc1C(=O)N1CCOC2(CCN(CCOc3ccc(CNC[C@H](O)c4ccc(O)c5[nH]c(=O)sc45)cc3)CC2)C1 | 38%
Cc1sccc1C(=O)N1CCOC2(CCN(CCCCCCCCCNC[C@H](O)c3ccc(O)c4[nH]c(=O)sc34)CC2)C1 | 91%

Next:
Consider Cc1ccoc1C(=O)N1CCOC2(CCN(Cc3cc(F)cc(CCNC[C@H](O)c4ccc(O)c5[nH]c(=O)sc45)c3)CC2)C1 . Its measured inhibition at 1 µM is 78%

* * *

For each entry below, report its β2 Intrinsic activity value.
Biological target: Adrenergic β2 (H292 cells) (Homo sapiens)
Construct: endogenous in cells; host or cells: H292 cells
Assay: Assay for Adrenergic β2 Mediated cAMP Production (concentration response, AlphaScreen cAMP detection)
Assay type: cell-based
Conditions: fraction relative to the maximum activity determined for formoterol
Structures can show the parent of a compound that is named as a salt.

CCCCc1nc(C(=O)N2CCOC3(CCN(Cc4cccc(CCNC[C@H](O)c5ccc(O)c6[nH]c(=O)sc56)c4F)CC3)C2)cs1 [Example 78, ditrifluoroacetate] | 0.9
Cc1ccc(C(=O)N2CCOC3(CCN(Cc4cc(CCNC[C@H](O)c5ccc(O)c6[nH]c(=O)sc56)cc(F)c4F)CC3)C2)s1 [Example 32, ditrifluoroacetate] | 1.1

Please report β2 Intrinsic activity for every entry that follows.
1. CC(C)c1nc(C(=O)N2CCOC3(CCN(Cc4ccc(C(F)(F)F)c(CCNC[C@H](O)c5ccc(O)c6[nH]c(=O)ccc56)c4)CC3)C2)cs1 [Example 273, ditrifluoroacetate]
2. CC(C)c1nc(C(=O)N2CCOC3(CCN(CCCSCCCCNC[C@H](O)c4ccc(O)c5[nH]c(=O)sc45)CC3)C2)cs1 [Example 281, formate]
3. O=C(c1ccc2sccc2c1)N1CCOC2(CCN(Cc3cccc(CCNC[C@H](O)c4ccc(O)c5[nH]c(=O)sc45)c3F)CC2)C1 [Example 68, ditrifluoroacetate]

*A*
1: 0.5; 2: 0.8; 3: 0.8

* * *

For each entry below, report its activation at 1 µM value.
Target: Adrenergic β2 (H292 cells) (Homo sapiens, UniProt P07550)
Construct: endogenous in cells; host or cells: H292 cells
Sequence (P07550 whole entry): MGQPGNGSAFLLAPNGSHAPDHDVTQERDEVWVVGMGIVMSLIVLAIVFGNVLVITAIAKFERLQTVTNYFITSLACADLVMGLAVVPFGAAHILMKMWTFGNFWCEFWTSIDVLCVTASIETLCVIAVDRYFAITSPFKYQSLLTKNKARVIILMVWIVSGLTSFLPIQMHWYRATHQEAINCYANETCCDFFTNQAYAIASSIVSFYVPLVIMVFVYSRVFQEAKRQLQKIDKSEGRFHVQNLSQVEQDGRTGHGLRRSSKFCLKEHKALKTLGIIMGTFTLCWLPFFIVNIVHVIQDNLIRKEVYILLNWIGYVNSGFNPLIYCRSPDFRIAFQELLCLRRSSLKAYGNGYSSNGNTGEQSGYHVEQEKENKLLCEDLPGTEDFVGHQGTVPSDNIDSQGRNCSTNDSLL
Experiment: Adrenergic β2 Mediated cAMP Production, single concentration 1 μM
Assay type: cell-based
Details: NCI-H292, 1 μM compound, percentage of the maximum response generated by 1E-07M formoterol, read-out: β2 (% effect at 1 μM)
Answers are plain numbers, in %.

Cc1ccc(C(=O)N2CCOC3(CCN(CCOc4ccc(CNC[C@H](O)c5ccc(O)c6[nH]c(=O)sc56)cc4)CC3)C2)o1 | 76
Cc1nonc1CC(=O)N1CCOC2(CCN(Cc3cc(F)cc(CCNC[C@H](O)c4ccc(O)c5[nH]c(=O)sc45)c3)CC2)C1 | 95

Consider Cn1c(C(=O)N2CCOC3(CCN(Cc4cc(F)cc(CCNC[C@H](O)c5ccc(O)c6[nH]c(=O)sc56)c4)CC3)C2)cc2ccccc21 . Its measured activation at 1 µM is 101

* * *

Molecular target: Adrenergic β2 (H292 cells) (Homo sapiens, UniProt P07550)
Construct: endogenous in cells; host or cells: H292 cells
Assay: Assay for Adrenergic β2 Mediated cAMP Production (concentration response, AlphaScreen cAMP detection)
Assay type: cell-based
Conditions: cAMP production, 60 minutes at room temperature, 300 μM rolipram, read-out: β2 pEC50 (converted)
property.name: EC50 (nM)
Give bare numbers, in nM.

The cases that follow already have their EC50 on record.
O=C(c1csc(C(F)(F)F)n1)N1CCOC2(CCN(CCCCCCCCCNC[C@H](O)c3ccc(O)c4[nH]c(=O)sc34)CC2)C1 | 39.8
CC(C)c1nc(C(=O)N2CCOC3(CCN(Cc4ccc(F)c(CCNC[C@H](O)c5ccc(O)c6[nH]c(=O)sc56)c4)CC3)C2)cs1 [Example 47, ditrifluoroacetate] | 15.8

Consider CC(C)c1cc(C(=O)N2CCOC3(CCN(Cc4cccc(CCNC[C@H](O)c5ccc(O)c6[nH]c(=O)sc56)c4)CC3)C2)cs1 [Example 82, ditrifluoroacetate] . Its measured EC50 is 3.98

* * *

Target: Adrenergic β2 (H292 cells) (Homo sapiens)
Construct: endogenous in cells; host or cells: H292 cells
Assay: Adrenergic β2 Mediated cAMP Production, single concentration 1 μM
Type: cell-based
Conditions: NCI-H292, 1 μM compound, percentage of the maximum response generated by 1E-07M formoterol, read-out: β2 (% effect at 1 μM)
For each entry below, report its activation at 1 µM value.
Please append the unit to your numeric answer.

The cases that follow already have their activation at 1 µM on record.
O=C(c1ccc(-c2cnco2)cc1)N1CCOC2(CCN(Cc3cc(F)cc(CCNC[C@H](O)c4ccc(O)c5[nH]c(=O)sc45)c3)CC2)C1 [Example 159] | 90%
O=C(c1[nH]nc2c1CCCC2)N1CCOC2(CCN(Cc3cc(F)cc(CCNC[C@H](O)c4ccc(O)c5[nH]c(=O)sc45)c3)CC2)C1 [Example 146] | 96%
Cc1ccccc1C(=O)N1CCOC2(CCN(Cc3cc(F)cc(CCNC[C@H](O)c4ccc(O)c5[nH]c(=O)sc45)c3)CC2)C1 [Example 121] | 85%
Cn1cccc1C(=O)N1CCOC2(CCN(CCCCCCCCCNC[C@H](O)c3ccc(O)c4[nH]c(=O)sc34)CC2)C1 [Example 184] | 89%
O=C(COc1ccccc1)N1CCOC2(CCN(CCCCCCCCCNC[C@H](O)c3ccc(O)c4[nH]c(=O)sc34)CC2)C1 [Example 199] | 91%

Consider CC(C)(C)c1nc(C(=O)N2CCOC3(CCN(CCOc4ccc(CNC[C@H](O)c5ccc(O)c6[nH]c(=O)sc56)cc4)CC3)C2)cs1 [Example 257] . Its measured activation at 1 µM is 56%

* * *

Molecular target: Adrenergic β2 (H292 cells) (Homo sapiens)
Construct: endogenous in cells; host or cells: H292 cells
Test: Assay for Adrenergic β2 Mediated cAMP Production (concentration response, AlphaScreen cAMP detection)
Assay type: cell-based
Conditions: cAMP production, 60 minutes at room temperature, 300 μM rolipram, read-out: β2 pEC50 (converted)
Structures can show the parent of a compound that is named as a salt.
property.name: EC50 (µM)
One number for each entry, in µM.

Cc1nc(C(=O)N2CCOC3(CCN(CCOc4cc(C)c(CNC[C@H](O)c5ccc(O)c6[nH]c(=O)sc56)cc4C)CC3)C2)cs1 [Example 18, ditrifluoroacetate] | 0.0631

Please report EC50 for every entry that follows.
1. Cc1nc(C(=O)N2CCOC3(CCN(CCOc4cccc(CNC[C@H](O)c5ccc(O)c6[nH]c(=O)ccc56)c4)CC3)C2)cs1 [Example 94, ditrifluoroacetate]
2. O=C(c1csc(C(F)(F)F)n1)N1CCOC2(CCN(Cc3cccc(CCNC[C@H](O)c4ccc(O)c5[nH]c(=O)ccc45)c3)CC2)C1 [Example 25, ditrifluoroacetate]
3. Cc1ccc(C(=O)N2CCOC3(CCN(Cc4cccc(CCNC[C@H](O)c5ccc(O)c6[nH]c(=O)sc56)c4)CC3)C2)s1 [Example 15, trifluoroacetate]
4. CC(C)c1nc(C(=O)N2CCOC3(CCN(Cc4cccc(SCCNC[C@H](O)c5ccc(O)c6[nH]c(=O)sc56)c4)CC3)C2)cs1 [Example 65, ditrifluoroacetate]
5. O=C(c1nc2ccccc2s1)N1CCOC2(CCN(CCCCCCCCCNC[C@H](O)c3ccc(O)c4[nH]c(=O)sc34)CC2)C1 [Example 107, formate]
6. CCCc1nc(C(=O)N2CCOC3(CCN(Cc4cc(F)cc(CCNC[C@H](O)c5ccc(O)c6[nH]c(=O)sc56)c4)CC3)C2)cs1 [Example 56, ditrifluoroacetate]

*A*
1: 1.26; 2: 0.0158; 3: 0.00251; 4: 0.1; 5: 0.0398; 6: 0.00794
